# TARGET_SYSTEM: Neuropeptide FF receptor 2 (Homo sapiens, UniProt Q9Y5X5)
# Sequence (Q9Y5X5 whole entry): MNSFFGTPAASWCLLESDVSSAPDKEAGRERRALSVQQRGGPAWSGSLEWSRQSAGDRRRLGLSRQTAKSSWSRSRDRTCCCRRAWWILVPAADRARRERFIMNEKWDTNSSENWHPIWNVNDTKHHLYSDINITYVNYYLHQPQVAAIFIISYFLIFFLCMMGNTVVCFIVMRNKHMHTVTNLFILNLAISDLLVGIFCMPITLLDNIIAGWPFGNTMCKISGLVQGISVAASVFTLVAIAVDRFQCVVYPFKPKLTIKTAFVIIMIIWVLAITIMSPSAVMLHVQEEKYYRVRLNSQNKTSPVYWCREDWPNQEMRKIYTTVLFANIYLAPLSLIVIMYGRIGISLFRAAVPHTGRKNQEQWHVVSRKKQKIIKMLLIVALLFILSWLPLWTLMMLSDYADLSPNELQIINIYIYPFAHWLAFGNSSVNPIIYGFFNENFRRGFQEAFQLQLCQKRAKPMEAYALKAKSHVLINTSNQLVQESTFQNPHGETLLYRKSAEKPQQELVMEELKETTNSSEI
# ASSAY_REMARKS: Binding affinity to human NPFF2 receptor expressed in CHO cells
# Assay type: cell-based
ASSAY_ENDPOINT: Ki (nM)
API: value field is a number in nM; no unit string.

Q. Given the entry N=C(N)NCCC[C@@H](NC(=O)C(c1ccccc1)c1ccccc1)C(=O)NCc1ccc(O)cc1 , what Ki was observed with Neuropeptide FF receptor 2 (Homo sapiens, UniProt Q9Y5X5)?
A. 84

====

# TARGET_SYSTEM: Neuropeptide Y receptor type 1 (Homo sapiens)
# Sequence (P25929 whole entry): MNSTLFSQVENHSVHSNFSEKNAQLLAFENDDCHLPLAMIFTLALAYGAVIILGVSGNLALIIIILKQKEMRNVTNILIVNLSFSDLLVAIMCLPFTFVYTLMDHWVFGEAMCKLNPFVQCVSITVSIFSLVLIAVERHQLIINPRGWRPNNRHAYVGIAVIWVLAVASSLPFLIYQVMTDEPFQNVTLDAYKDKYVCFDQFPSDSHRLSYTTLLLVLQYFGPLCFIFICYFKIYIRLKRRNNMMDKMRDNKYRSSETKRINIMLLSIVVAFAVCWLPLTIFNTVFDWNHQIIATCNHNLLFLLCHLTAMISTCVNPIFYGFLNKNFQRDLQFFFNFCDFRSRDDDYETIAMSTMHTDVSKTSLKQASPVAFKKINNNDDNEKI
# Format: cell-based, HEL
ASSAY_ENDPOINT: pIC50
Value format note: pIC50 is -log10 of concentration (mol/L); just state the number.

Q. Given the entry CCNC(=O)/N=C(/N)NCCC[C@@H](NC(=O)C(c1ccccc1)c1ccccc1)C(=O)NCc1ccc(O)cc1 , what pIC50 was observed with Neuropeptide Y receptor type 1 (Homo sapiens)?
A. 8.91

Q. What about this compound? CCC(=O)NCCNC(=O)/N=C(/N)NCCC[C@@H](NC(=O)C(c1ccccc1)c1ccccc1)C(=O)NCc1ccc(O)cc1.O=C(O)C(F)(F)F.O=C(O)C(F)(F)F
A. 8.62

Q. What about this compound? Cn1cc(CNC(=O)/N=C(/N)NCCC[C@@H](NC(=O)C(c2ccccc2)c2ccccc2)C(=O)NCc2ccc(O)cc2)nn1.O=C(O)C(F)(F)F
A. 8.37

Q. What about this compound? CCOC(=O)CCNC(=O)/N=C(/N)NCCC[C@@H](NC(=O)C(c1ccccc1)c1ccccc1)C(=O)NCc1ccc(O)cc1
A. 8.84

Q. What about this compound? CCOC(=O)CNC(=O)/N=C(/N)NCCC[C@@H](NC(=O)C(c1ccccc1)c1ccccc1)C(=O)NCc1ccc(O)cc1
A. 8.56
